- STUDY SYSTEM: human MC4R receptor (human, UniProt P32245 1-332)
- Sequence (P32245 whole entry): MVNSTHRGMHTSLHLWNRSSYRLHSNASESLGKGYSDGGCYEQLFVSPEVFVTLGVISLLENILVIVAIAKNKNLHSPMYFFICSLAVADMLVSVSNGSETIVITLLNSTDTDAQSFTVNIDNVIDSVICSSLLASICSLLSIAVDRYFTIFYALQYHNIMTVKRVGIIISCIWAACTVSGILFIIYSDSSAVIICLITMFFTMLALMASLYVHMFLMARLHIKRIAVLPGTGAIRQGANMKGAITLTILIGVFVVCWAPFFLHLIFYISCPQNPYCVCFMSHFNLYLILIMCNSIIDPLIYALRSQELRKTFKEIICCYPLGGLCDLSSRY
- METHOD: cell-based or functional assay
Starred links: 1 amine or outer side, 2 acyl side, 3 side chain; linkers in the order of their positions; H or OH if unused. Positions of bridges follow the written chain, without caps; N, C: chain ends. Non-standard residues stand in square brackets, D forms with d. Primed or numbered codes have the meaning given here. dTyr(4-OMe)″ = O-methyl-D-tyrosine, COc1ccc(C[C@@H](N[*:1])C(=O)[*:2])cc1; dPhe(4-tBu) = CC(C)(C)c1ccc(C[C@@H](N)C(=O)O)cc1; dPhe(4-Br) = N[C@H](Cc1ccc(Br)cc1)C(=O)O; dPhe(4-F) = N[C@H](Cc1ccc(F)cc1)C(=O)O; NMeR = CN[C@@H](CCCNC(=N)N)C(=O)O; Nle = CCCC[C@H](N)C(=O)O
MEASUREMENT NAME: MC4R selectivity vs MC3R
Just the number, please.

BINDER: Ac-RC[dA]R[dPhe(4-F)]R[dW]C-NH2 (disulfide 2-8) [CTX-1236]
OBSERVED: 1.36
--
BINDER: Ac-RC[dA]R[dW]RWC-NH2 (disulfide 2-8; SMILES CC(=O)N[C@@H](CCCNC(=N)N)C(=O)N[C@H]1CSSC[C@@H](C(N)=O)NC(=O)[C@H](Cc2c[nH]c3ccccc23)NC(=O)[C@H](CCCNC(=N)N)NC(=O)[C@@H](Cc2c[nH]c3ccccc23)NC(=O)[C@H](CCCNC(=N)N)NC(=O)[C@@H](C)NC1=O) [CTX-1274]
OBSERVED: 0.12
--
BINDER: Ac-RC[dA]R[dPhe(4-Br)]RWC-NH2 (disulfide 2-8) [CTX-2205]
OBSERVED: 2.12

In: For the binder Ac-RC[dA][dR][dPhe(4-Br)]R[dW]C-NH2 (disulfide 2-8) [CTX-1250] , what MC4R selectivity vs MC3R is on record?
Out: 11

In: So what does the record say about MC4R selectivity vs MC3R for Ac-RC[dA]RF[NMeR][dW]C-NH2 (disulfide 2-8; not fully specified (residue 5)) [CTX-1251] ?
Out: 3.73

In: Looking for the measured MC4R selectivity vs MC3R of Ac-RC[dA]R[dPhe(4-tBu)]R[dW]C-NH2 (disulfide 2-8; SMILES CC(=O)N[C@@H](CCCNC(=N)N)C(=O)N[C@H]1CSSC[C@@H](C(N)=O)NC(=O)[C@@H](Cc2c[nH]c3ccccc23)NC(=O)[C@H](CCCNC(=N)N)NC(=O)[C@@H](Cc2ccc(C(C)(C)C)cc2)NC(=O)[C@H](CCCNC(=N)N)NC(=O)[C@@H](C)NC1=O) [CTX-1242] , can you help?
Out: 0.08

In: Would you kindly share the measured MC4R selectivity vs MC3R for Ac-R[Nle]CR[dTyr(4-OMe)″]R[dW]C-NH2 (disulfide 3-8; SMILES CCCC[C@H](NC(=O)[C@H](CCCNC(=N)N)NC(C)=O)C(=O)N[C@H]1CSSC[C@@H](C(N)=O)NC(=O)[C@@H](Cc2c[nH]c3ccccc23)NC(=O)[C@H](CCCNC(=N)N)NC(=O)[C@@H](Cc2ccc(OC)cc2)NC(=O)[C@H](CCCNC(=N)N)NC1=O) [CTX-1615] ?
Out: 2.14
